# EXPERIMENTAL TARGET: UniProt:P14618
# Sequence (P14618 whole entry): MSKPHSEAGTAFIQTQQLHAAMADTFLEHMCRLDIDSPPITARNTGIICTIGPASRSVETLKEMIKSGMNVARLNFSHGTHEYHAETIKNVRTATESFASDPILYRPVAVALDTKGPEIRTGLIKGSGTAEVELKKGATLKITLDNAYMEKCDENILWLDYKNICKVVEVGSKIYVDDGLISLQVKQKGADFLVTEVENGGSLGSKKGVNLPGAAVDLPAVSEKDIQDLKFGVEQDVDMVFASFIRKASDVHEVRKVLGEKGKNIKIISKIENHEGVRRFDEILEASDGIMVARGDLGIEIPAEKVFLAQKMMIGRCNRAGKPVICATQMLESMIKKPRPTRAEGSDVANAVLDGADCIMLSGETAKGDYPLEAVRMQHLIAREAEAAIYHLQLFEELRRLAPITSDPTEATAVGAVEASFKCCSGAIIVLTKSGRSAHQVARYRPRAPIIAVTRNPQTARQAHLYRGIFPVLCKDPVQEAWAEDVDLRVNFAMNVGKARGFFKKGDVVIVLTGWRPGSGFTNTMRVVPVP
# PROTOCOL DETAILS: PKM2 Assay (activation, LDH-coupled NADH absorbance at 340 nm)
# Format: biochemical
# MEASUREMENT SETUP: activation of PKM2; PKM2 50 ng/well, ADP 0.7 mM, PEP 0.15 mM, room temperature (25° C.); read-out: AC50
MEASURED PARAMETER: AC50

>>> meas_value("COc1cc(NS(=O)(=O)c2cccc3cccnc23)ccc1C(=O)N1CC(OC(=O)Nc2ccccn2)C1")
"100 to 1000 nM"
>>> meas_value("O=C(c1ccc(NS(=O)(=O)c2cccc3cccnc23)c(F)c1)N1CC(Nc2ccccc2)C1")
"100 to 1000 nM"
>>> meas_value("Cc1cc(C(=O)N2CC(O)(c3ccccc3)C2)ccc1NS(=O)(=O)c1cccc2cccnc12")
"100 to 1000 nM"
>>> meas_value("O=C(OC1CN(C(=O)c2ccc(NS(=O)(=O)c3cccc4cccnc34)c(F)c2)C1)c1ccccn1")
"1000 to 10000 nM"
